system: soluble form of SEP (Mus musculus, UniProt Q9JLI3)
Construct: partially purified the soluble form of SEP from the conditioned medium of CHO/SEP cells; made in house; host or cells: CHO-K1 cells, transient transfection; conditioned medium partially purified on a wheat germ lectin column
Sequence (Q9JLI3 63-765 limits assumed): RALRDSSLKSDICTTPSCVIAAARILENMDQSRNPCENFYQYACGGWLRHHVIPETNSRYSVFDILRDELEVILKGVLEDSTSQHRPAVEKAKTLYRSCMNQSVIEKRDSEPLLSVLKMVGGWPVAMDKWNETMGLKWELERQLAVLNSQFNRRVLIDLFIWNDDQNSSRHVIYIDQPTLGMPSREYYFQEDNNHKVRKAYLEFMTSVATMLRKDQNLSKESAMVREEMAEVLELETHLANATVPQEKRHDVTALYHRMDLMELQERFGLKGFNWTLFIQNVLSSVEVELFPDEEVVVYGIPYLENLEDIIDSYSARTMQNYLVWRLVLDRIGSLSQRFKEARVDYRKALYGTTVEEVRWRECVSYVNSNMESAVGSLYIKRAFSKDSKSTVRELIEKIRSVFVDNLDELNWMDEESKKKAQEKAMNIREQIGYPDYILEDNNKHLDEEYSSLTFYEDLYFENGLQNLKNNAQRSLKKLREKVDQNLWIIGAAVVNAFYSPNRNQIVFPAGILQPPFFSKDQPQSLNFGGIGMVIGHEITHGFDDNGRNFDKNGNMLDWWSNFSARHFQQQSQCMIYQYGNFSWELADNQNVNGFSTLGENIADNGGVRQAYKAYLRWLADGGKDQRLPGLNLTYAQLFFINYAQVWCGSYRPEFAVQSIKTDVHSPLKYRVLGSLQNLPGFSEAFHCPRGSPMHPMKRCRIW
assay: Inhibition of ET-1 degrading activity of recombinant soluble SEP
Format: biochemical
experimentalSetup: soluble form of SEP, in vitro
quantityKind: inhibition of SEP activity (in words)

smi	quantityKind	val
CC(C)C[C@H](NP(=O)(O)O[C@@H]1O[C@@H](C)[C@H](O)[C@@H](O)[C@H]1O)C(=O)N[C@@H](Cc1c[nH]c2ccccc12)C(=O)O	inhibition of SEP activity (in words)	inhibited
c1cnc2c(c1)ccc1cccnc12	inhibition of SEP activity (in words)	inhibited
